ASSAYED_TARGET: cholesterol esterase (EC 3.1.1.13) from bovine pancreas (CEH) (Bos taurus, UniProt P30122)
Construct: purchased Sigma Company, St. Louis, Mo., U.S.A. C-1892; host or cells: bovine pancreas
Sequence (P30122 19-597): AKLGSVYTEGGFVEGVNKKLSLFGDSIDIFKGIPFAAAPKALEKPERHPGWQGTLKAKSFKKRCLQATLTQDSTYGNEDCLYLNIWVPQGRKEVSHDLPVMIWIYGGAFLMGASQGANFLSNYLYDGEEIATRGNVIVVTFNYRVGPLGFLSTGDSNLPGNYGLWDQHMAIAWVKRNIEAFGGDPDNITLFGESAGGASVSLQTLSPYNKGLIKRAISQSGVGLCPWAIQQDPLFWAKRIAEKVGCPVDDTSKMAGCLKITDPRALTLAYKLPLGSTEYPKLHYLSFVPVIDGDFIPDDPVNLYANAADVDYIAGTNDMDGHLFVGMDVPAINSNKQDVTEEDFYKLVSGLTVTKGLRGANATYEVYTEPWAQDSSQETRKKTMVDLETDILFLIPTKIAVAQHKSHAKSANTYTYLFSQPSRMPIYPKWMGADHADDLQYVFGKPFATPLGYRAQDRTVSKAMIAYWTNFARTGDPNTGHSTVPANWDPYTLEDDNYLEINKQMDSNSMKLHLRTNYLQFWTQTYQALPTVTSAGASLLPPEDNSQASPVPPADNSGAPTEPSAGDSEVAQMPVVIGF
MEASUREMENT_DESCRIPTION: CEH inhibition (cholesteryl ester formation from cholesterol and oleic acid by buffered cholesterol esterase)
Format: biochemical
OBSERVED_PROPERTY: IC50 (µM)
Give the value, in units of µM, as a plain number.

Looking up CCN(CC)C(=O)OC1CCN(C(=O)Oc2ccc(Oc3ccccc3)cc2)CC1 [Example 12] , I found its IC50 recorded as 11.4

Looking up CNC(=O)OC1CCN(C(=O)Oc2ccc(Oc3ccccc3)cc2)CC1 [Example 11] , I found its IC50 recorded as 2.1

Looking up CCCCCCNC(=O)OC1CCN(C(=O)Oc2ccc(Oc3ccccc3)cc2)CC1 [Example 3] , I found its IC50 recorded as 9.8

Looking up CCCCNC(=O)OC1CCN(C(=O)Oc2ccc(Oc3ccccc3)cc2)CC1 [Example 2] , I found its IC50 recorded as 2.3

* * *

ASSAYED_TARGET: cholesterol esterase (EC 3.1.1.13) from bovine pancreas (CEH) (Bos taurus, UniProt P30122)
Construct: purchased Sigma Company, St. Louis, Mo., U.S.A. C-1892; host or cells: bovine pancreas
MEASUREMENT_DESCRIPTION: CEH inhibition (cholesteryl ester formation from cholesterol and oleic acid by buffered cholesterol esterase)
Format: biochemical
PARTICULARS: 37° C., bovine pancreas enzyme; read-out: CEH IC50
Text: 2. […]
# if measured IC50 < 10 µM: TRUE  # else: FALSE

Prompt: Does the reported IC50 of O=C(Oc1ccc(Oc2ccccc2)cc1)N1CCC(OC(=O)N2CCSCC2)CC1 stay below 10 µM?
Response: FALSE

Prompt: Does the reported IC50 of CC1CCN(C(=O)OC2CCN(C(=O)Oc3ccc(Oc4ccccc4)cc3)CC2)CC1 stay below 10 µM?
Response: TRUE

Prompt: Does the reported IC50 of O=C(NC1CCCCC1)OC1CCN(C(=O)Oc2ccc(Oc3ccccc3)cc2)CC1 stay below 10 µM?
Response: TRUE

Prompt: Does the reported IC50 of CCCCCCCCCCCCCCCCCCNC(=O)OC1CCN(C(=O)Oc2ccc(Oc3ccccc3)cc2)CC1 stay below 10 µM?
Response: FALSE

Prompt: Does the reported IC50 of CCCCCCNC(=O)OC1CCN(C(=O)Oc2ccc(Oc3ccc(C)cc3)cc2)CC1 stay below 10 µM?
Response: TRUE

Prompt: Does the reported IC50 of O=C(NCCCCc1ccccc1)OC1CCN(C(=O)Oc2ccc(Oc3ccccc3)cc2)CC1 stay below 10 µM?
Response: TRUE

Prompt: Does the reported IC50 of CCCCCCNC(=O)OC1CCN(C(=O)Oc2ccc(Oc3ccc(OC)cc3)cc2)CC1 stay below 10 µM?
Response: TRUE

Prompt: Does the reported IC50 of O=C(Oc1ccc(Oc2ccccc2)cc1)N1CCC(OC(=O)N2CCC(c3ccccc3)CC2)CC1 stay below 10 µM?
Response: FALSE

Prompt: Does the reported IC50 of CCCCCCCC/C=C\CCCCCCCCNC(=O)OC1CCN(C(=O)Oc2ccc(Oc3ccccc3)cc2)CC1 stay below 10 µM?
Response: FALSE

Prompt: Does the reported IC50 of CCCCCCCN(Cc1ccc(CC(C)(C)C)cc1)C(=O)OC1CCN(C(=O)Oc2ccc(Oc3ccccc3)cc2)CC1 stay below 10 µM?
Response: FALSE

Prompt: Does the reported IC50 of CC(C)CCCC(C)NC(=O)OC1CCN(C(=O)Oc2ccc(Oc3ccccc3)cc2)CC1 (centres unmarked) stay below 10 µM?
Response: FALSE

Prompt: Does the reported IC50 of O=C(NCC1CCCCC1)OC1CCN(C(=O)Oc2ccc(Oc3ccccc3)cc2)CC1 stay below 10 µM?
Response: FALSE

Prompt: Does the reported IC50 of CCCCCCCCNC(=O)OC1CCN(C(=O)Oc2ccc(Oc3ccccc3)cc2)CC1 stay below 10 µM?
Response: FALSE

Prompt: Does the reported IC50 of CCCCCCCCCCCCNC(=O)OC1CCN(C(=O)Oc2ccc(Oc3ccccc3)cc2)CC1 stay below 10 µM?
Response: FALSE

The origin of these recorded values is patent US5169844A.
